src = paper PMC11378028

- assay.system: UniProtKB P11388
- Sequence (P11388 whole entry): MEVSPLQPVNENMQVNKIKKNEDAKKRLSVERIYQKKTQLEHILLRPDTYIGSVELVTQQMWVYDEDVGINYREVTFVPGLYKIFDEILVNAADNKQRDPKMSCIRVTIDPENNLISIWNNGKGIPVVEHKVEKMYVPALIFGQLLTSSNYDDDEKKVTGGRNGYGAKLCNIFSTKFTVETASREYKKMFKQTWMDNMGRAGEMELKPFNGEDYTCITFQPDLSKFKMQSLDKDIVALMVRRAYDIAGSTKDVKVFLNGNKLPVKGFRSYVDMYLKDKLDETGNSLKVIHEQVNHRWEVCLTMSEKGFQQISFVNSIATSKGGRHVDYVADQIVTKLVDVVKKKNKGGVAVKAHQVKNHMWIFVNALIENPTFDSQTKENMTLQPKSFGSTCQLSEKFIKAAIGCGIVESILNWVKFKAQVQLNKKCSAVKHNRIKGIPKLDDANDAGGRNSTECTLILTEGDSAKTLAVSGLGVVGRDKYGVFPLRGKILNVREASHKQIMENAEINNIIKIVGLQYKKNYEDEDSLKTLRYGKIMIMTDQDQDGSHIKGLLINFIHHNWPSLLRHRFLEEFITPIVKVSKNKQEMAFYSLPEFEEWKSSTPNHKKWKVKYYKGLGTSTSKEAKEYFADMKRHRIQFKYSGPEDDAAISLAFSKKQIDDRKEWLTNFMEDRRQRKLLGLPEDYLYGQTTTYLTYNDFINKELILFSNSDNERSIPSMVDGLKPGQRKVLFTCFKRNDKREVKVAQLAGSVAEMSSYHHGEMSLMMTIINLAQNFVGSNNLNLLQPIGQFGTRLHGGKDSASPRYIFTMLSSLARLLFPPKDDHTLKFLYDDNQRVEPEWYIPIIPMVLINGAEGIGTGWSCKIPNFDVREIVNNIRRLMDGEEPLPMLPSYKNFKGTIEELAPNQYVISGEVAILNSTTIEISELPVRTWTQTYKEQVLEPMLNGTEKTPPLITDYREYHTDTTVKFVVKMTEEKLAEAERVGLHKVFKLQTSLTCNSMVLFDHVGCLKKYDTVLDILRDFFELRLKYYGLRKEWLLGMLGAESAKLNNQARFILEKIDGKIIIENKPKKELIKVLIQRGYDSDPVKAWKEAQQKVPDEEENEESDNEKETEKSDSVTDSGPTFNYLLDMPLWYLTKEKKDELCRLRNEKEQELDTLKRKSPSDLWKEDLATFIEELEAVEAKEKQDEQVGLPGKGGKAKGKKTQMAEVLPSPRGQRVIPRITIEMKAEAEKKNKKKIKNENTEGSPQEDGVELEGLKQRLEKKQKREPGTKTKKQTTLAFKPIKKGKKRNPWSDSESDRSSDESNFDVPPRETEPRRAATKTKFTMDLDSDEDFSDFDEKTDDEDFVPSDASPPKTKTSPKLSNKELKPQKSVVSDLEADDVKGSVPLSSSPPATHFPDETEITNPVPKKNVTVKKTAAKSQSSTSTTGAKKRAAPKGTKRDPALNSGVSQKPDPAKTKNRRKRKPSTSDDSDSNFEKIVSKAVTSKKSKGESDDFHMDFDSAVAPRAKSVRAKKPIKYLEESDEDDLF
- assay.overview: human DNA topoisomerase IIα inhibition
- Assay type: biochemical
- conditions: read-out: RA (residual activity) Human topo IIα
This section presents molecules with their documented remaining activity at 10 µM values.
readout.name: remaining activity at 10 µM (%)

INSERT INTO measurements (molecule, assay_system, numeric_readout) VALUES
  ('Cc1[nH]c(C(=O)Nc2ccc(C(=O)NCC(=O)O)cc2N2CCNCC2)c(Cl)c1Cl [Compound 10a]', 'UniProtKB P11388', 78),
  ('Cc1[nH]c(C(=O)Nc2ccc(C(=O)NCc3n[nH]c(=O)o3)cc2N2CCNCC2)c(Cl)c1Cl [Compound 14]', 'UniProtKB P11388', 111),
  ('Cc1[nH]c(C(=O)Nc2ccc(-c3n[nH]c(=O)o3)cc2NC2CCNCC2)c(Cl)c1Cl.Cl [Compound 23d]', 'UniProtKB P11388', 99),
  ('Cc1[nH]c(C(=O)Nc2ccc(C(=O)NCC(=O)O)cc2N2CC[C@H](N)C2)c(Cl)c1Cl [Compound 10b]', 'UniProtKB P11388', 82);

---

The molecules below have reported MIC for E. spp. cloacae ATCC 13047.
readout.name: MIC

INSERT INTO results (molecule, result) VALUES
  ('Cc1[nH]c(C(=O)Nc2ccc(C(=O)O)cc2N2CCN(c3ccccc3)CC2)c(Cl)c1Cl [Compound 18h]', '> 64 µg/mL'),
  ('Cc1[nH]c(C(=O)Nc2ccc(-c3n[nH]c(=O)o3)cc2N2CCC[C@H](N)C2)c(Cl)c1Cl.Cl [Compound 23c]', '> 64 µg/mL'),
  ('Cc1[nH]c(C(=O)Nc2ccc(C(=O)O)cc2N2CCNCC2)c(Cl)c1Cl.Cl [Compound 20a]', '> 64 µg/mL'),
  ('Cc1[nH]c(C(=O)Nc2ccc(-c3n[nH]c(=O)o3)cc2N2CCOC(C)C2)c(Cl)c1Cl (stereo not drawn) [Compound 22f]', '> 64 µg/mL'),
  ('COC(=O)c1ccc(NC(=O)c2[nH]c(C)c(Cl)c2Cl)c(N2CCCC(CN)C2)c1.Cl (stereo not drawn) [Compound 19i]', '> 64 µg/mL'),
  ('Cc1[nH]c(C(=O)Nc2ccc(-c3n[nH]c(=O)o3)cc2NC2CCNCC2)c(Cl)c1Cl.Cl [Compound 23d]', '> 64 µg/mL'),
  ('Cc1[nH]c(C(=O)Nc2ccc(C(=O)O)cc2N2CCC[C@H](N)C2)c(Cl)c1Cl.Cl [Compound 20c]', '> 64 µg/mL'),
  ('Cc1[nH]c(C(=O)Nc2ccc(-c3n[nH]c(=O)o3)cc2N2CC[C@H](N)C2)c(Cl)c1Cl.Cl [Compound 23b]', '32 µg/mL'),
  ('Cc1[nH]c(C(=O)Nc2ccc(-c3n[nH]c(=O)o3)cc2N2CCOCC2)c(Cl)c1Cl [Compound 22e]', '> 64 µg/mL'),
  ('Cc1[nH]c(C(=O)Nc2ccc(C(=O)O)cc2NC2CCNCC2)c(Cl)c1Cl.Cl [Compound 20d]', '> 64 µg/mL'),
  ('Cc1[nH]c(C(=O)Nc2ccc(-c3n[nH]c(=O)o3)cc2OCc2ccccc2)c(Cl)c1Cl [Compound 39]', '> 32 µg/mL'),
  ('Cc1[nH]c(C(=O)Nc2ccc(-c3n[nH]c(=O)o3)cc2N2CCNCC2)c(Cl)c1Cl.Cl [Compound 23a]', '> 64 µg/mL');
